The reported measurements were obtained from patent US10052310B2.

# Test system: Raji
# Method summary: MTT in vitro cytotoxicity assay
# Type: cell-based
# Study conditions: Homo sapiens, Leukemia, 72 h, read-out: IC50 growth inhibition
Property label: pIC50
Conceptually, pIC50 converts a concentration in mol/L into minus its log10.

Task: API: value(readout=pIC50, system=Raji) for record CC1(C)[N+]([O-])=c2ccc([N+](=O)[O-])cc2=[N+]1[O-] [Sepin-1]
Result: 5.36

###

# Target entity: Separase (Homo sapiens, UniProt Q14674)
# Construct: made in house; host or cells: 293T cells; released from IgG-Agarose by TEV protease
# Sequence (Q14674 whole entry): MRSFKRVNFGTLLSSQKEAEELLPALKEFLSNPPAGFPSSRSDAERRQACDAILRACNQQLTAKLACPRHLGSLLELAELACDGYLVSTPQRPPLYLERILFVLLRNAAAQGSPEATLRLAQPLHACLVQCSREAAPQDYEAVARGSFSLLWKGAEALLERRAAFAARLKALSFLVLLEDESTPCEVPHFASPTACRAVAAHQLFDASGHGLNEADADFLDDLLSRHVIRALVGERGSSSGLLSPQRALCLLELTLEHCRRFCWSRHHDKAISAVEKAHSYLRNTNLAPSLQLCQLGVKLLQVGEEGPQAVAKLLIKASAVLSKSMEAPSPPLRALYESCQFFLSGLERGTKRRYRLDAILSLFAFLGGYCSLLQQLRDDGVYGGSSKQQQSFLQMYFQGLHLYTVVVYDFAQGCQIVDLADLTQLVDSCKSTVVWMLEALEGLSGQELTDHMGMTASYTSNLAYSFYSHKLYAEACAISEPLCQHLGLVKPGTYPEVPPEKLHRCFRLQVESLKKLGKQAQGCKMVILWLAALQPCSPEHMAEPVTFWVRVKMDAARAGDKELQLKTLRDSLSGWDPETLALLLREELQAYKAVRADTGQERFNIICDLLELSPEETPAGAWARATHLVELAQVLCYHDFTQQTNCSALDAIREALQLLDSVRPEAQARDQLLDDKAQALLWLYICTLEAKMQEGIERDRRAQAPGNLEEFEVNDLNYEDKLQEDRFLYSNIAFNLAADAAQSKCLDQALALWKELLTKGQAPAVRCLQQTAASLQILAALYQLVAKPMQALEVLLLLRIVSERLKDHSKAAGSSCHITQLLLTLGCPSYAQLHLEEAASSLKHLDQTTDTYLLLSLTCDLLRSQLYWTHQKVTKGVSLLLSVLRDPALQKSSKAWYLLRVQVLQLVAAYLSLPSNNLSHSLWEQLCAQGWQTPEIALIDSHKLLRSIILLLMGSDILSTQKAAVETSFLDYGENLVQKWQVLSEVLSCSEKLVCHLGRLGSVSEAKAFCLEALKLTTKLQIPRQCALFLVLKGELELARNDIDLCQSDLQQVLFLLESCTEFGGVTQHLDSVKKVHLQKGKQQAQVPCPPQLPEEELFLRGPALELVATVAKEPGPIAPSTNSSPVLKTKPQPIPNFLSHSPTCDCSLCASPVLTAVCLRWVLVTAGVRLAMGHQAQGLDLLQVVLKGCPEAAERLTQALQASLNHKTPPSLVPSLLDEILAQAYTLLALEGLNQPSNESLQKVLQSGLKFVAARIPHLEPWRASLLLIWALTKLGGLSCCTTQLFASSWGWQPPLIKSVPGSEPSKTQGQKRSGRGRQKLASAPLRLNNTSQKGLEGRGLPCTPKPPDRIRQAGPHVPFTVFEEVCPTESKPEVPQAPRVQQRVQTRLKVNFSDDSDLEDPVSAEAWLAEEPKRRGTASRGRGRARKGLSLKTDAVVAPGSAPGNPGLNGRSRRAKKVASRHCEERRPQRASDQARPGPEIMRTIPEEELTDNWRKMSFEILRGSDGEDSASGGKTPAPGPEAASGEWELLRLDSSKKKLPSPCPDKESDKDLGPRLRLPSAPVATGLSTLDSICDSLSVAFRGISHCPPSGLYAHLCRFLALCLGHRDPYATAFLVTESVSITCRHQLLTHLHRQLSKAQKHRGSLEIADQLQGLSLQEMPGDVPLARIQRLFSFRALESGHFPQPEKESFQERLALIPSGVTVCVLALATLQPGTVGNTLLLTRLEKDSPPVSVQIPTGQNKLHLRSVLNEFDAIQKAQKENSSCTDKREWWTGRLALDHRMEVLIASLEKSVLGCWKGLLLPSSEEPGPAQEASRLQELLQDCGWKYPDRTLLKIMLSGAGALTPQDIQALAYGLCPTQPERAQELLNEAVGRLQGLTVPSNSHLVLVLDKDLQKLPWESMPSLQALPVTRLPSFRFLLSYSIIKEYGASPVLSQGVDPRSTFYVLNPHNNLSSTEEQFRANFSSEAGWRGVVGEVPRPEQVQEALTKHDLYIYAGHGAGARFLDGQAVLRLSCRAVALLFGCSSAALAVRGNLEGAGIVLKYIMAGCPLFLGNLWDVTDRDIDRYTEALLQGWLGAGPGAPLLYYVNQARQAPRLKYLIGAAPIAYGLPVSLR
# Method summary: Fluorogenic Separase activity assay using (Rad21)2-Rh110 as substrate
# Assay type: biochemical
# Study conditions: (Rad21)2-Rh110 substrate; calculated using KaleidaGraph; read-out: IC50 of Separase activity inhibition
# Description: The substrate used in this Example is (Rad21)2-Rh110, which has two Rad21 peptide molecules (Asp-Arg-Glu-Ile-Nle-Arg) conjugated to one molecule of Rhodamine 110 (Rh110) (CPC Scientific, Sunnyvale Calif.). The assay was set up using 384-well low volume black polystyrene plates (Corning, N.Y.). […] Different amounts of Sepin-1 were mixed with activated Separase for 30 min before substrate (Rad21)2-Rh110 was added. After 3 h incubation at 37° C., the fluorescence intensity of Rh110 was determined. […]
Property label: IC50
Number first, unit second.

Task: Please look up its IC50: CC1(C)[N+]([O-])=c2ccc([N+](=O)[O-])cc2=[N+]1[O-] [Sepin-1]
Result: 14.8 µM

###

# Test system: Jurkat
# Method summary: MTT in vitro cytotoxicity assay
# Type: cell-based
# Study conditions: Homo sapiens, Leukemia, 72 h, read-out: IC50 growth inhibition
Property label: IC50 (µM)
Report only the number, with the unit µM understood.

Task: API: value(readout=IC50, system=Jurkat) for record CC1(C)[N+]([O-])=c2ccc([N+](=O)[O-])cc2=[N+]1[O-] [Sepin-1]
Result: 14

###

# Test system: CHP212
# Method summary: MTT in vitro cytotoxicity assay
# Assay type: cell-based
# Study conditions: Homo sapiens, CHP-212, CHP212, Neuroblastoma, 72 h, read-out: IC50 growth inhibition
Property label: IC50 (µM)
Report only the number, with the unit µM understood.

Task: API: value(readout=IC50, system=CHP212) for record CC1(C)[N+]([O-])=c2ccc([N+](=O)[O-])cc2=[N+]1[O-] [Sepin-1]
Result: 9

###

# Tested on: MDAMB231
# Method summary: MTT in vitro cytotoxicity assay
# Format: cell-based
# Study conditions: Homo sapiens, MDA-MB-231, MDAMB231, Breast, 72 h, read-out: IC50 growth inhibition
Property label: IC50 (µM)
Report only the number, with the unit µM understood.

Task: Please look up its IC50: CC1(C)[N+]([O-])=c2ccc([N+](=O)[O-])cc2=[N+]1[O-] [Sepin-1]
Result: 21.5

###

# Tested on: CHLA-02-ATRT
# Method summary: MTT in vitro cytotoxicity assay
# Assay type: cell-based
# Study conditions: Homo sapiens, Brain, 72 h, read-out: IC50 growth inhibition
Property label: IC50 (µM)
Report only the number, with the unit µM understood.

Task: Please look up its IC50: CC1(C)[N+]([O-])=c2ccc([N+](=O)[O-])cc2=[N+]1[O-] [Sepin-1]
Result: 7.6
